- Target or system: UniProt:P29274
- Run description: Indirect determination of adenosine antagonism via gene expression (CRE luciferase), A2a cells
- Condition notes: table after B-5; CHO K1 A2a cells; agonist 30 nM NECA
- Method: B-5. Indirect Determination of Adenosine Antagonism Via Gene Expression Cells of the permanent line CHO K1 (Chinese Hamster Ovary) are stably transfected with a reporter construct (CRE luciferase) and the cDNA for the adenosine receptor subtype A2a or A2b. […] For testing in the 384-well plate format, the cells are sown at 2000 cells/well in 25 μl/well sowing medium and cultured at 37° C. under 5% carbon dioxide until substance testing. […] The luciferase activity is detected with a luminescence reader. […]
Observable: EC50

Incoming: # EC50 lookup, item CNC(=O)c1cc(CSc2nc(N)c(C#N)c(-c3cc[nH]n3)c2C#N)ccn1 [Example 15]
Outgoing: ≥ 50 µM

* * *

- Target or system: adenosine receptor subtype A1 (A1-Gα 16 fusion construct) (Homo sapiens)
- Construct: "an A1-Gα 16 fusion construct
- Sequence (P30542 whole entry, the tested form may be a part): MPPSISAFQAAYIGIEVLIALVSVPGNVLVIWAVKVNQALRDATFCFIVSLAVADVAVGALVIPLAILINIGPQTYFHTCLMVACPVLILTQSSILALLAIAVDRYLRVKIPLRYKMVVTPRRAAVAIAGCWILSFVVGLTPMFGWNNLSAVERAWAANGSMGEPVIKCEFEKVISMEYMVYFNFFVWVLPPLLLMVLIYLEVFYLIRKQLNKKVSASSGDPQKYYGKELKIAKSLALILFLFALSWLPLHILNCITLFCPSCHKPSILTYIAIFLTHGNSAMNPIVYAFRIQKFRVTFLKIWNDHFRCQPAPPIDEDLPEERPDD
- Run description: Indirect determination of adenosine antagonism via gene expression (NFAT luciferase), A1-Gα16 cells
- Condition notes: CHO K1 A1-Gα16 cells; agonist 25 nM CPA
Observable: IC50 (nM)
Provide only the numeric value, understood in nM.

Incoming: I have this compound here, CNC(=O)c1cc(CSc2nc(N)c(C#N)c(-c3cc[nH]n3)c2C#N)ccn1 [Example 15] , and I need its recorded IC50.
Outgoing: 0.5

Incoming: For the compound CNC(=O)c1cc(CSc2nc(NCCO)c(C#N)c(-c3cc[nH]n3)c2C#N)ccn1 [Example 29] , what IC50 is on record?
Outgoing: 3.6

* * *

Measured EC50 values are reported for all entries that follow.
- Target or system: adenosine A2b receptor (Homo sapiens, UniProt P29275)
- Sequence (P29275 whole entry): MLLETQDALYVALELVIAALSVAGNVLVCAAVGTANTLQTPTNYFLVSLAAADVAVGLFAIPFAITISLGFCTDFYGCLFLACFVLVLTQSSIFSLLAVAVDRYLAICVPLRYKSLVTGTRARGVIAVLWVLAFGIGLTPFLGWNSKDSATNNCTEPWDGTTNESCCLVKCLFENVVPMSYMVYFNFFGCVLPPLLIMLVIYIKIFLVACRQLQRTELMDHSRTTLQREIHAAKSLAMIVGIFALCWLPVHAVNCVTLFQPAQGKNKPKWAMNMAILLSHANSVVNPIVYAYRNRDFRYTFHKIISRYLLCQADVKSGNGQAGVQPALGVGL
- Run description: Indirect determination of adenosine agonism by way of gene expression (luciferase), A2b cells
- Condition notes: stably transfected CHO cells; 50% of maximum stimulation of luciferase
All answers are understood in µM, so give the number only.

Answered cases to consult:
>>> reported_result("N#Cc1c(SCc2csc(-c3ccc(Cl)cc3)n2)nc(N2CC[C@@H](O)C2)c(C#N)c1-c1cncs1")
3
>>> reported_result("N#Cc1c(SCc2csc(-c3ccc(Cl)cc3)n2)nc(N2CC(O)C2)c(C#N)c1-c1cncs1")
3
>>> reported_result("N#Cc1c(N)nc(SCc2csc(-c3ccc(Cl)cc3)n2)c(C#N)c1-c1cscn1")
1.57

Incoming: Entry under review: `N#Cc1c(SCc2coc(-c3ccc(Cl)cc3)n2)nc(N2CC(O)C2)c(C#N)c1-c1nccs1` . Reported EC50?
Outgoing: 1.8

* * *

- Target or system: adenosine A2b receptor (Homo sapiens, UniProt P29275)
- Run description: Indirect determination of adenosine agonism by way of gene expression (luciferase), A2b cells
- Condition notes: stably transfected CHO cells; 50% of maximum stimulation of luciferase
Observable: EC50
Provide a numeric answer, followed by its unit.

>>> reported_result("N#Cc1c(N)nc(SCc2csc(-c3ccc(Cl)cc3)n2)c(C#N)c1-c1cccs1")
"34 nM"
>>> reported_result("N#Cc1c(N)nc(SCc2coc(-c3ccc(Cl)cc3)n2)c(C#N)c1-c1cn[nH]c1")
"3000 nM"
>>> reported_result("N#Cc1c(N)nc(SCc2coc(-c3ccc(Cl)cc3)n2)c(C#N)c1-c1cncs1")
"3000 nM"
>>> reported_result("N#Cc1c(N)nc(SCc2csc(-c3ccc(Cl)cc3)n2)c(C#N)c1-c1cnc[nH]1")
"715 nM"

Moving on to the next compound.
Incoming: State the recorded EC50 for this entry: CC(O)Cn1ccc(-c2c(C#N)c(N)nc(SCc3csc(-c4ccc(Cl)cc4)n3)c2C#N)n1 (stereo not drawn)
Outgoing: 1410 nM

* * *

Documented EC50 across a set of compounds
- Target or system: adenosine A2a receptor (Homo sapiens, UniProt P29274)
- Construct: expressed in transfected cells; host or cells: CHO (Chinese Hamster Ovary)
- Sequence (P29274 whole entry): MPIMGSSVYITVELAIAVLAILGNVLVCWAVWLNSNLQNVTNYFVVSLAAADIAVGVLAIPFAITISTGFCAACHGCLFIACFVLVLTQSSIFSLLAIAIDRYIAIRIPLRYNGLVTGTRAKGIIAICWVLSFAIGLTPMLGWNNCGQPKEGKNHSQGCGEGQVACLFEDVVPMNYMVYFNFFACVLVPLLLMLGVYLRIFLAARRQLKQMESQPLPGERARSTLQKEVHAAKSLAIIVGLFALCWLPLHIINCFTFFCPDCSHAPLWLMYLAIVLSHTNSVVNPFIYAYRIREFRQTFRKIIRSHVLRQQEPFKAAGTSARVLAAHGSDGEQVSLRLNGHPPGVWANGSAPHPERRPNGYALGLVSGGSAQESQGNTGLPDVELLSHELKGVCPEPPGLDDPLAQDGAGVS
- Run description: Indirect determination of adenosine agonism by way of gene expression (luciferase), A2a cells
- Type: cell-based
- Condition notes: stably transfected CHO cells; 50% of maximum stimulation of luciferase
The reply should be a number in µM, with the unit left off.

>>> reported_result("N#Cc1c(SCc2csc(-c3ccc(Cl)cc3)n2)nc(N2CC(O)C2)c(C#N)c1-c1cc[nH]n1")
6.5
>>> reported_result("N#Cc1c(N)nc(SCc2cccc(C(N)=O)c2)c(C#N)c1-c1cccs1")
0.088

With those in mind, consider the next compound.
Incoming: Item: `N#Cc1c(NC[C@H](O)CO)nc(SCc2csc(-c3ccc(Cl)cc3)n2)c(C#N)c1-c1nccs1` Test system: adenosine A2a receptor (Homo sapiens, UniProt P29274) Read-out: EC50 Value: ?
Outgoing: 0.378

* * *

- Target or system: adenosine A1 receptor (Homo sapiens)
- Construct: expressed in transfected cells; host or cells: CHO (Chinese Hamster Ovary)
- Run description: Indirect determination of adenosine agonism by way of gene expression (luciferase), A1 cells
- Assay type: cell-based
- Condition notes: stably transfected CHO cells; 1 μM forskolin; 50% inhibition of luciferase response
- From the text: B-1. Indirect Determination of the Adenosine Agonism by Way of Gene Expression Cells of the CHO (Chinese Hamster Ovary) permanent line are transfected stably with the cDNA for the adenosine receptor subtypes A1, A2a and A2b. The adenosine A1 receptors are coupled to the adenylate cyclase by way of Gi proteins, while the adenosine A2a and A2b receptors are coupled by way of Gs proteins. In correspondence with this, the formation of cAMP in the cell is inhibited or stimulated, respectively. […]
Observable: EC50 (nM)
Reply with just the number (in nM).

Recorded results for 5 compounds are shown here.
>>> reported_result("N#Cc1c(N)nc(SCc2cccc(C(N)=O)c2)c(C#N)c1-c1cccs1 [Example 37]")
0.05
>>> reported_result("N#Cc1c(N)nc(SCc2coc(-c3ccc(Cl)cc3)n2)c(C#N)c1-c1cncs1 [Example 4]")
0.9
>>> reported_result("N#Cc1c(N)nc(SCc2csc(-c3ccc(Cl)cc3)n2)c(C#N)c1-c1cccs1 [Example 32]")
0.3
>>> reported_result("N#Cc1c(N)nc(SCc2csc(-c3ccc(Cl)cc3)n2)c(C#N)c1-c1cnc[nH]1 [Example 8]")
1.2
>>> reported_result("N#Cc1c(SCc2csc(-c3ccc(Cl)cc3)n2)nc(N2CC[C@@H](O)C2)c(C#N)c1-c1cncs1 [Example 47]")
0.5

Incoming: Form field: reported EC50 of N#Cc1c(SCc2csc(-c3ccc(Cl)cc3)n2)nc(N2CC(O)C2)c(C#N)c1-c1cncs1 [Example 16]
Outgoing: 0.4

Incoming: I have this compound here, N#Cc1c(N)nc(SCc2csc(-c3ccc(Cl)cc3)n2)c(C#N)c1-c1cscn1 [Example 1] , and I need its recorded EC50.
Outgoing: 0.5

Incoming: What does the record list as EC50 for N#Cc1c(SCc2csc(-c3ccc(Cl)cc3)n2)nc(N2CC(O)C2)c(C#N)c1-c1nccs1 [Example 22] ?
Outgoing: 0.6

Incoming: EC50 for N#Cc1c(N)nc(SCc2coc(-c3ccc(Cl)cc3)n2)c(C#N)c1-c1cn[nH]c1 [Example 12] ?
Outgoing: 2.4

* * *

- Target or system: UniProt:P29275
- Run description: Indirect determination of adenosine agonism by way of gene expression (luciferase), A2b cells
- Condition notes: stably transfected CHO cells; 50% of maximum stimulation of luciferase
The entries below come with measured pEC50 values attached.
Entry type: numeric. Quantity: pEC50, the -log10 of concentration in molar units.

These solved cases illustrate the format of a correct answer.
>>> reported_result("N#Cc1c(N)nc(SCc2cccc(C(N)=O)c2)c(C#N)c1-c1cccs1 [Example 37]")
7.55
>>> reported_result("N#Cc1c(NC[C@H](O)CO)nc(SCc2csc(-c3ccc(Cl)cc3)n2)c(C#N)c1-c1nccs1 [Example 21]")
5.52
>>> reported_result("N#Cc1c(SCc2csc(-c3ccc(Cl)cc3)n2)nc(N2CC(O)C2)c(C#N)c1-c1cc[nH]n1 [Example 27]")
5.19

Now for another entry.
Incoming: Consider the compound N#Cc1c(SCc2csc(-c3ccc(Cl)cc3)n2)nc(N2CC(O)C2)c(C#N)c1-c1nccs1 [Example 22] and give its measured pEC50.
Outgoing: 5.89

* * *

- Target or system: adenosine A2a receptor (Homo sapiens, UniProt P29274)
- Run description: Indirect determination of adenosine agonism by way of gene expression (luciferase), A2a cells
- Condition notes: stably transfected CHO cells; 50% of maximum stimulation of luciferase
pEC50: −log10 of the molar value.
Tag: 1.0 if measured pEC50 is not below 6, 0.0 if it is.

The following compounds have reported results that may help.
>>> classification("N#Cc1c(SCc2csc(-c3ccc(Cl)cc3)n2)nc(N2CC[C@@H](O)C2)c(C#N)c1-c1cncs1")
0.0
>>> classification("N#Cc1c(N)nc(SCc2csc(-c3ccc(Cl)cc3)n2)c(C#N)c1-c1cscn1")
0.0
>>> classification("CC(O)Cn1ccc(-c2c(C#N)c(N)nc(SCc3csc(-c4ccc(Cl)cc4)n3)c2C#N)n1 (stereo not shown)")
0.0
>>> classification("N#Cc1c(SCc2csc(-c3ccc(Cl)cc3)n2)nc(N2CC(O)C2)c(C#N)c1-c1cncs1")
0.0
>>> classification("N#Cc1c(SCc2coc(-c3ccc(Cl)cc3)n2)nc(N2CC(O)C2)c(C#N)c1-c1nccs1")
0.0

Incoming: Reported pEC50 reaches at least 6 for `N#Cc1c(N)nc(SCc2coc(-c3ccc(Cl)cc3)n2)c(C#N)c1-c1cncs1` ?
Outgoing: 0.0

Incoming: Tell me whether pEC50 is at least 6 here: `N#Cc1c(SCc2csc(-c3ccc(Cl)cc3)n2)nc(N2CC(O)C2)c(C#N)c1-c1nccs1`
Outgoing: 0.0

Incoming: Given `N#Cc1c(N)nc(SCc2coc(-c3ccc(Cl)cc3)n2)c(C#N)c1-c1cn[nH]c1` , state whether its pEC50 is at least 6.
Outgoing: 0.0

Incoming: Say whether `N#Cc1c(N)nc(SCc2csc(-c3ccc(Cl)cc3)n2)c(C#N)c1-c1cnc[nH]1` shows pEC50 of 6 or more.
Outgoing: 1.0

Incoming: Decide: is the reported value of pEC50 for `N#Cc1c(N)nc(SCc2csc(-c3ccc(Cl)cc3)n2)c(C#N)c1-c1cccs1` equal to or greater than 6?
Outgoing: 1.0
